- Target under test: F876L mutant Androgen Receptor (AR-F876L) (Homo sapiens, UniProt P10275, F877L)
- Construct: expressed in transfected cells; host or cells: LNCaP F876L cells with ARE firefly luciferase lentiviral construct
- Sequence (P10275 whole entry F877L): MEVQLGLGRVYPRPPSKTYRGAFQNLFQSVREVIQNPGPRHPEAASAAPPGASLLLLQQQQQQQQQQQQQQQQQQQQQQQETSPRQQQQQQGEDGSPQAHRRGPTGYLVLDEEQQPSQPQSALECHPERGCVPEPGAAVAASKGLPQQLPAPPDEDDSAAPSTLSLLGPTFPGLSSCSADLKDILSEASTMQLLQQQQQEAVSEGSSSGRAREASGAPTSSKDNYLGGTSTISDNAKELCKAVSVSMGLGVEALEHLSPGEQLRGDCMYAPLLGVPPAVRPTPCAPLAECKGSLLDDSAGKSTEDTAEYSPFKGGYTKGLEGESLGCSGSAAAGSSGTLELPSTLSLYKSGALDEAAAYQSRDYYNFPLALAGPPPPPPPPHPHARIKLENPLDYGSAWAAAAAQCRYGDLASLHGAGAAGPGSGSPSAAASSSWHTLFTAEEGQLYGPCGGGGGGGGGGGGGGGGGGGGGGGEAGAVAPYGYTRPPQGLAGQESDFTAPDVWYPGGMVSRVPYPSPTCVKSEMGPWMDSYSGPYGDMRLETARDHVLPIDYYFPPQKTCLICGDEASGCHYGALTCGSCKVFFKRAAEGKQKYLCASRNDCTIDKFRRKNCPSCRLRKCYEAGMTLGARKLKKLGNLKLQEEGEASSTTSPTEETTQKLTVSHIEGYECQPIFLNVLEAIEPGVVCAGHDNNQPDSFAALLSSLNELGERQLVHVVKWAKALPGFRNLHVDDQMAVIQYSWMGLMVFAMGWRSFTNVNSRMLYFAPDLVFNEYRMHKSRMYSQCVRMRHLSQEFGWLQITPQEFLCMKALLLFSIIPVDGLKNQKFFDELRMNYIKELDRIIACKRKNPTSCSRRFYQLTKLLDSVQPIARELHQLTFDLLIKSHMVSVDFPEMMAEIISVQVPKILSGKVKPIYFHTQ
- Test: LNCaP-AR-F876L AG: ARE luciferase reporter assay, agonist mode
- Type: cell-based
- Condition info: maximum % stimulation (agonist response), % of 1 μM R-1881 max
- Procedure: A stable pooled-population cell line was generated using puromycin (Life Technologies) selection at 1:10,000 v/v. The protocol below was used for both cell lines and for testing of the compounds of Formula (I) of the present invention. LNCaP cells were grown to about 80% confluence, media removed and cells rinsed in Hank's balanced salt solution prior to separation from the plate with 0.05% Trypsin EDTA. […] After 1 h, plates were read for luminescence on a BMG Pherastar. […]
Reported endpoint: LNCaP-AR-F876L AG MAX % Stim
I'd appreciate it if you included the unit after the number.

Request body: readout LNCaP-AR-F876L AG MAX % Stim, system F876L mutant Androgen Receptor (AR-F876L) (Homo sapiens, UniProt P10275, F877L), query N#Cc1ncc(N2C(=O)C3(CCC3)N(c3ccc(Oc4ccccn4)cc3)C2=S)cc1C(F)(F)F . Return the value.
2.0%

Find LNCaP-AR-F876L AG MAX % Stim (F876L mutant Androgen Receptor (AR-F876L) (Homo sapiens, UniProt P10275, F877L)) for the entry COCCNC(=O)c1ccc(N2C(=S)N(c3cnc(C#N)c(C(F)(F)F)c3)C(=O)C23CCC3)cc1F
0.2%

I'm curious: which LNCaP-AR-F876L AG MAX % Stim was measured for N#Cc1ncc(N2C(=O)C3(CCC3)N(c3ccc(C(=O)NCCCc4ccccc4)c(F)c3)C2=S)cc1C(F)(F)F tested on F876L mutant Androgen Receptor (AR-F876L) (Homo sapiens, UniProt P10275, F877L)?
0.5%

Hi! What's the reported LNCaP-AR-F876L AG MAX % Stim for Cc1cc(N2C(=O)C3(CCC3)N(c3ccc(C4CCOCC4)cc3)C2=S)cnc1C#N on F876L mutant Androgen Receptor (AR-F876L) (Homo sapiens, UniProt P10275, F877L)?
1.7%

====

- System: LNCaP F876L
- Test: LNCaP Proliferation Assay (LNCaP F876L)
- Assay type: cell-based
- Condition info: Homo sapiens, 96 h, 4 days, normalized to 0.1 nM R1881 stimulation
- Protocol: LNCaP cells were expanded in RPMI 10% FBS in T150 flasks. The cells were dislodged with 0.25% Trypsin, washed in complete media, centrifuged (300 g, 3 min), and the supernatant aspirated. The cells were resuspended in RPMI phenol-red free media with 1% charcoal-stripped serum (CSS) and counted using a ViCELL (Beckman-Coulter). […] The plates were placed on a shaker at 3000 rpm for 10 minutes and then read on an EnVision plate reader (Perkin Elmer) using Luminescence assay default settings. […]
Reported endpoint: IC50 (µM)
Form entry: value (µM) — number only.

Using the record for CN1CCC(Oc2ccc(N3C(=S)N(c4cnc(C#N)c(C(F)(F)F)c4)C(=O)C34CCC4)cc2)CC1 [Cpd 85] , report its IC50.
8.87

====

- Target under test: F876L mutant Androgen Receptor (AR-F876L) (Homo sapiens, UniProt P10275, F877L)
- Construct: expressed in transfected cells; host or cells: LNCaP F876L cells with ARE firefly luciferase lentiviral construct
- Test: LNCaP-AR-F876L AG: ARE luciferase reporter assay, agonist mode
- Type: cell-based
- Condition info: maximum % stimulation (agonist response), % of 1 μM R-1881 max
Reported endpoint: LNCaP-AR-F876L AG MAX % Stim (%)
A number alone suffices; assume %.

What does the record list as LNCaP-AR-F876L AG MAX % Stim for N#Cc1ncc(N2C(=O)C3(CCC3)N(c3ccc(OCCCN4CCCC4)c(F)c3)C2=S)cc1C(F)(F)F ?
0.6

What measured LNCaP-AR-F876L AG MAX % Stim goes with Cc1cc(N2C(=O)C3(CCC3)N(c3ccc(OC4CCOCC4)cc3)C2=S)cnc1C#N ?
0.9

For the molecule shown here, CC(C)CCNC(=O)c1ccc(N2C(=S)N(c3cnc(C#N)c(C(F)(F)F)c3)C(=O)C23CCC3)cc1F , give the reported LNCaP-AR-F876L AG MAX % Stim.
0.2

Can you share its LNCaP-AR-F876L AG MAX % Stim? I mean this molecule: Cc1cc(N2C(=O)C3(CCC3)N(c3ccc(-c4cncnc4)cc3)C2=S)cnc1C#N
0.8
